- Test system: ERBB4
- condition_context: concentration: 1 μM, replicates: in singlicate; n = 1;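 note: KINOMEscan kinase panel screen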

{"smiles_str": "N#CC1(c2cccc(C(=O)Nc3cccc(Oc4ccc5nc(NC(=O)C6CC6)sc5n4)c3)c2)CC1", "%Inh": "0%"}
{"smiles_str": "CN1CCN(Cc2ccc(NC(=O)Nc3ccc(N(C)c4ccnc(Nc5ccc(CS(C)(=O)=O)cc5)n4)cc3)cc2)CC1.Cl", "%Inh": "33%"}
{"smiles_str": "Nc1cccc(-c2ccc3c(N)n[nH]c3c2)c1", "%Inh": "0%"}
{"smiles_str": "O=C(Nc1n[nH]c2nc(-c3ccccc3)ccc12)C1CC1", "%Inh": "0%"}
{"smiles_str": "COc1cccc2c(-c3ccncc3)c(-c3ccc(F)cc3)nn12", "%Inh": "68%"}
{"smiles_str": "CCOc1nccc(-c2c(-c3ccc(F)cc3)ncn2C2CCNCC2)n1", "%Inh": "30%"}
{"smiles_str": "COc1cccc(CC(=O)N2CCc3cc(-c4cn(C)c5ncnc(N)c45)ccc32)c1", "%Inh": "0%"}
{"smiles_str": "Cc1cccc(Nc2nc(N[C@H]3CCCC[C@H]3N)ncc2C(N)=O)c1.Cl", "%Inh": "21%"}
{"smiles_str": "COc1ccc(NC(=O)c2ccoc2)cc1-c1ccc(C(=O)NCC2CC2)cc1", "%Inh": "7%"}

====

%Inh: recorded values
- Test system: TIE2
- Construct: gene TEK
- condition_context: concentration: 1 μM, replicates: in singlicate; n = 1

{"compound": "Cc1ccc(O)cc1Nc1ccnc2cc(-c3ccc(CN4CCCCC4)o3)ccc12 [GW557777]", "measurement_target": "TIE2", "uom": "%", "%Inh": 57}
{"compound": "NCCC(NC(=O)c1cc(Br)c(-c2ccnc3[nH]ccc23)s1)c1ccccc1.O=C(O)C(F)(F)F.O=C(O)C(F)(F)F (stereo not shown) [GSK1307810]", "measurement_target": "TIE2", "uom": "%", "%Inh": 0}
{"compound": "Cc1cc(-c2ccnc(Nc3cccc(C#N)c3)n2)cc(C)c1O [GSK1440913]", "measurement_target": "TIE2", "uom": "%", "%Inh": 0}
{"compound": "COc1ccc(C)c(Nc2ccnc(Nc3ccc(-c4cnc[nH]4)cc3)n2)c1.Cl [GW784041]", "measurement_target": "TIE2", "uom": "%", "%Inh": 36}

====

- Tested on: IKK-beta
- Construct: gene IKBKB
- condition_context: concentration: 1 μM, replicates: in singlicate; n = 1

{"smiles_str": "CCn1cnc2c(NCc3ccccc3)ncnc21", "measurement_target": "IKK-beta", "%Inh (%)": 19}
{"smiles_str": "Cc1ccc(C)c(NC(=O)Nc2ccc(C)c(-c3ccc(C(=O)Nc4ccncc4)cc3)c2)c1", "measurement_target": "IKK-beta", "%Inh (%)": 8}
{"smiles_str": "COc1ccc(NC(=O)c2ccoc2)cc1-c1ccc(C(=O)NCC2CC2)cc1", "measurement_target": "IKK-beta", "%Inh (%)": 0}
{"smiles_str": "Cn1cc(-c2ccc3c(c2)CCN3C(=O)Cc2cc(F)cc(C(F)(F)F)c2)c2c(N)ncnc21", "measurement_target": "IKK-beta", "%Inh (%)": 0}
{"smiles_str": "Cc1ccc(Nc2ccnc(Nc3ccc(C)c(F)c3)n2)cc1O.Cl", "measurement_target": "IKK-beta", "%Inh (%)": 18}
{"smiles_str": "COc1cccc(-c2nc(-c3ccccc3)[nH]c2-c2ccncc2)c1", "measurement_target": "IKK-beta", "%Inh (%)": 35}
{"smiles_str": "O=C(O)C(F)(F)F.O=c1[nH]ccc2nc(N[C@@H]3CCNC3)nc(Nc3cc(Cl)cc(Cl)c3)c12", "measurement_target": "IKK-beta", "%Inh (%)": 44}
{"smiles_str": "CC(C)c1nc(-c2cccc(NS(=O)(=O)c3c(F)cccc3F)c2)c(-c2ccnc(Nc3ccc(N4CCOCC4)nc3)n2)s1.Cl", "measurement_target": "IKK-beta", "%Inh (%)": 0}
{"smiles_str": "CC(C)c1nc(-c2ccc(F)c(NS(=O)(=O)c3c(F)cccc3F)c2)c(-c2ccnc(Nc3ccc(N4CCOCC4)nc3)n2)s1", "measurement_target": "IKK-beta", "%Inh (%)": 0}
{"smiles_str": "CN(c1ccc(NC(=O)N2CCN(CCCN3CCOCC3)CC2)cc1)c1ccnc(Nc2ccc(CS(C)(=O)=O)cc2)n1.Cl", "measurement_target": "IKK-beta", "%Inh (%)": 0}
{"smiles_str": "Cc1ccc(O)cc1Nc1ccnc2cc(-c3ccc(CN4CCCCC4)o3)ccc12", "measurement_target": "IKK-beta", "%Inh (%)": 0}
{"smiles_str": "Nc1ncnc2scc(-c3ccc(NC(=O)Cc4cc(F)ccc4F)cc3)c12.O=C(O)C(F)(F)F", "measurement_target": "IKK-beta", "%Inh (%)": 0}
{"smiles_str": "O=C1NC(=O)C(c2ccccc2Cl)=C1Nc1cccc(Cl)c1", "measurement_target": "IKK-beta", "%Inh (%)": 36}
{"smiles_str": "Cl.O=C(Nc1ccc(Oc2ccc3[nH]c(NC(=O)c4ccco4)nc3c2)cc1)Nc1cc(C(F)(F)F)ccc1F", "measurement_target": "IKK-beta", "%Inh (%)": 49}
{"smiles_str": "Cc1ccc(NC(=O)c2ccc(Cl)c(Cl)c2)cc1-c1ccc(C(=O)Nc2ccncc2)cc1", "measurement_target": "IKK-beta", "%Inh (%)": 10}
{"smiles_str": "Cn1cc(-c2ccc3c(c2)CCN3C(=O)Cc2cc(F)cc(F)c2F)c2c(N)ncnc21", "measurement_target": "IKK-beta", "%Inh (%)": 12}
{"smiles_str": "O=C(Nc1n[nH]c2nc(-c3ccccc3)ccc12)C1CC1", "measurement_target": "IKK-beta", "%Inh (%)": 66}

====

- Test system: JAK1(JH1domain-catalytic)
- condition_context: concentration: 1 μM, replicates: in singlicate; n = 1

{"compound": "COc1cccc(NC(=O)NCCNc2ccnc(Nc3ccc(F)cc3)n2)c1", "%Inh": "23%"}
{"compound": "Cl.O=C(Nc1ccc(Oc2ccc3[nH]c(NC(=O)c4ccco4)nc3c2)cc1)Nc1cc(C(F)(F)F)ccc1F", "%Inh": "91.2%"}
{"compound": "COc1cc(Nc2ccnc3cc(-c4ccncc4)ccc23)cc(OC)c1OC.Cl", "%Inh": "33%"}
{"compound": "N#CC1(c2cccc(C(=O)Nc3cccc(Oc4ccc5nc(NC(=O)C6CC6)sc5n4)c3)c2)CC1", "%Inh": "8%"}
{"compound": "NCCC(NC(=O)c1cc(Br)c(-c2ccnc3[nH]ccc23)s1)c1ccccc1.O=C(O)C(F)(F)F.O=C(O)C(F)(F)F (stereo not shown)", "%Inh": "79%"}
{"compound": "CC(C)c1nc(-c2cccc(NS(=O)(=O)c3c(F)cccc3F)c2)c(-c2ccnc(Nc3ccc(N4CCOCC4)nc3)n2)s1.Cl", "%Inh": "0%"}
{"compound": "Cl.Cl.NC(CNC(=O)c1cc(Br)c(-c2ccnc3[nH]ccc23)s1)c1ccccc1 (stereo not shown)", "%Inh": "24%"}
{"compound": "COC(=O)Nc1nc2cc(Oc3ccc(NC(=O)Nc4cccc(SC)c4)cc3)ccc2[nH]1.Cl", "%Inh": "2%"}
{"compound": "N#Cc1cnc2cc(-c3cnc(CNCCN4CCOCC4)s3)ccc2c1Nc1ccc(Oc2ccccc2)cc1", "%Inh": "10%"}
{"compound": "CCOc1nccc(-c2c(-c3ccc(F)cc3)ncn2C2CCNCC2)n1", "%Inh": "29%"}
{"compound": "COc1cccc(C2=C(Nc3cccc(O)c3)C(=O)NC2=O)c1", "%Inh": "9%"}
{"compound": "Cc1cccc(Nc2nc(NCCN)ncc2C(N)=O)c1", "%Inh": "27%"}
{"compound": "Fc1cc(Cl)ccc1Nc1ccnc2cc(-c3ccc(CN4CCSCC4)o3)ccc12", "%Inh": "11%"}
{"compound": "O=C(Nc1n[nH]c2nc(-c3ccccc3O)ccc12)C1CC1", "%Inh": "36%"}
{"compound": "Cn1cc(-c2ccc3c(c2)CCN3C(=O)Cc2cc(F)cc(C(F)(F)F)c2)c2c(N)ncnc21", "%Inh": "9%"}
{"compound": "CS(=O)(=O)c1cccc(CNc2nc(Nc3ccc4c(c3)CCC(=O)N4)ncc2C(F)(F)F)c1", "%Inh": "50%"}

====

- Test system: WEE1
- condition_context: concentration: 1 μM, replicates: in singlicate; n = 1
// values below are reported %Inh

{"molecule": "N#CC1(c2cccc(C(=O)Nc3cccc(Oc4ccc5nc(NC(=O)C6CC6)sc5n4)c3)c2)CC1", "%Inh / %": 0}
{"molecule": "Cc1ccc(NC(=O)c2cccc(N3CCCCC3)c2)cc1-c1ccc(C(=O)NCC2CC2)cc1", "%Inh / %": 0}
{"molecule": "Cc1cc(-c2c(-c3ccc(F)cc3)ncn2CCCN2CCOCC2)nc(N)n1", "%Inh / %": 47}
{"molecule": "COc1ccc(C)c(Nc2ccnc(Nc3ccc(-c4cnc[nH]4)cc3)n2)c1.Cl", "%Inh / %": 0}
{"molecule": "O=C(Nc1n[nH]c2cc(-c3cccs3)ccc12)C1CC1", "%Inh / %": 0}
{"molecule": "Cl.O=C(Nc1ccc(Oc2ccc3[nH]c(NC(=O)c4ccco4)nc3c2)cc1)Nc1cc(C(F)(F)F)ccc1F", "%Inh / %": 0}
{"molecule": "O=C(Nc1c(F)cccc1F)c1cc(C(=O)c2ccccc2F)c[nH]1", "%Inh / %": 2}
{"molecule": "COC(=O)Nc1nc2ccc(Oc3ccc(NC(=O)Nc4cc(C(F)(F)F)ccc4F)cc3)cc2[nH]1.Cl", "%Inh / %": 31}
{"molecule": "COc1cc(Nc2nccc(N3CCC(NS(=O)(=O)c4ccc(NC(C)=O)cc4)CC3)n2)cc(OC)c1OC", "%Inh / %": 75}
{"molecule": "Nc1ncc(-c2cn[nH]c2)c2scc(-c3ccc4c(c3)CCN4C(=O)Cc3ccccc3)c12", "%Inh / %": 0}
{"molecule": "O=C(Nc1n[nH]c2nc(-c3cccc(O)c3)ccc12)C1CC1", "%Inh / %": 0}
{"molecule": "N#Cc1cnc2cc(-c3cnc(CNCCN4CCOCC4)s3)ccc2c1Nc1ccc(Oc2ccccc2)cc1", "%Inh / %": 7}
{"molecule": "Cc1ccc(-c2ccc3occ(-c4ccc(S(C)=O)cc4)c3c2)nn1 (centres unmarked)", "%Inh / %": 0}
{"molecule": "CN(C)CCNS(=O)(=O)c1ccc(-c2ccnc3[nH]ccc23)cc1", "%Inh / %": 35}
{"molecule": "COc1cccc(CC(=O)N2CCc3cc(-c4cn(C)c5ncnc(N)c45)ccc32)c1", "%Inh / %": 0}
{"molecule": "Cc1ccc(Nc2ccnc(Nc3ccc(C)c(F)c3)n2)cc1O.Cl", "%Inh / %": 0}
{"molecule": "Cn1cc(-c2ccc3c(c2)CCN3C(=O)Cc2cc(F)cc(C(F)(F)F)c2)c2c(N)ncnc21", "%Inh / %": 0}
